Origin of values: PubChem BioAssay (NCI)

Task for the reader: assign each of the following compounds its reported growth inhibition.
Experiment: NCI Yeast Anticancer Drug Screen. Data for the mlh1 rad18 strain (AID 175)
Details: S. cerevisiae mlh1 rad18 strain growth inhibition; at 50.0 µM; hits give high values
The panel holds about 79,000 compounds, 15% with a hit somewhere; the sample as a whole holds those more often.
Give the value in % but do not write % after it.

Q: Consider the compound c1ccc(SC2CCSc3ccccc3C2Sc2ccccc2)cc1 (stereo unspecified) . State its measured growth inhibition.
A: 11.2

Q: State, in one line, measured growth inhibition of O=c1n(-c2ccccc2)c(=O)n2n1C1C3C4C5C1C5C2C43 (stereo unspecified)
A: 12.8

Q: Recall and state the measured growth inhibition for COc1ccc(S(=O)(=O)N(CC(=O)O)c2ccccc2)cc1 .
A: -0.7

Q: Identify growth inhibition associated with the compound CC(=O)C1C(=O)C(=O)N(c2ccc([N+](=O)[O-])cc2)C1=O (stereo unspecified)
A: -37.5

Q: Please indicate growth inhibition recorded for CN(C)CN1CSC(=S)N(CN(C)C)C1
A: 26.4

Q: Give recorded growth inhibition. NNC(=S)N/N=C/c1ccco1
A: -14.2
